melting point: recorded values

Worked cases, answers included:
- MOLECULE: "Nc1nc2c(F)c(F)ccc2s1"
  RESULT VALUE: "49 to 51 °C"
- MOLECULE: "Nc1nnc(-c2cccc([N+](=O)[O-])c2)o1"
  RESULT VALUE: "256 to 258 °C"
- MOLECULE: "CC1(c2ccc(C#N)cc2)NC(=O)NC1=O (stereo not given)"
  RESULT VALUE: "209 to 211 °C"
- MOLECULE: "Nc1cc(F)c(I)c(F)c1"
  RESULT VALUE: "113 to 115 °C"
- MOLECULE: "Nc1nc(SCCO)n[nH]1"
  RESULT VALUE: "126 to 128 °C"
- MOLECULE: "COc1ccc(NC(=O)Nc2ccc(OC)nc2)cn1"
  RESULT VALUE: "215 to 217 °C"
- MOLECULE: "Nc1ccc(CN2C(=O)CSC2=O)cc1"
  RESULT VALUE: "134 to 136 °C"
- MOLECULE: "BrCCc1ccc2ccccc2c1"
  RESULT VALUE: "62 to 64 °C"
- MOLECULE: "NS(=O)(=O)CC(=O)O"
  RESULT VALUE: "119 to 121 °C"
- MOLECULE: "O=C(Nc1cccc(C(=O)O)c1)Nc1ccc(Cl)c(Cl)c1"
  RESULT VALUE: "279 to 281 °C"

Request: // query melting point value for entry O=C1CCSc2c(Cl)cccc21
Response: 91 to 93 °C

Request: Then Nc1[nH]ncc1-c1ccc2c(c1)OCO2 ?
Response: 166 to 168 °C

Request: Then Cc1cc(C(=O)CCl)c(C)n1-c1c(C)n(C)n(-c2ccccc2)c1=O ?
Response: 160 to 162 °C
